I'd appreciate it if you could supply furin cleavage Z-score values for the items below.
SYSTEM UNDER TEST: furin, P09958;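 note: purified furin at 1:10 enzyme:substrate in 50 mM HEPES pH 7.5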
Sequence (P09958 whole entry): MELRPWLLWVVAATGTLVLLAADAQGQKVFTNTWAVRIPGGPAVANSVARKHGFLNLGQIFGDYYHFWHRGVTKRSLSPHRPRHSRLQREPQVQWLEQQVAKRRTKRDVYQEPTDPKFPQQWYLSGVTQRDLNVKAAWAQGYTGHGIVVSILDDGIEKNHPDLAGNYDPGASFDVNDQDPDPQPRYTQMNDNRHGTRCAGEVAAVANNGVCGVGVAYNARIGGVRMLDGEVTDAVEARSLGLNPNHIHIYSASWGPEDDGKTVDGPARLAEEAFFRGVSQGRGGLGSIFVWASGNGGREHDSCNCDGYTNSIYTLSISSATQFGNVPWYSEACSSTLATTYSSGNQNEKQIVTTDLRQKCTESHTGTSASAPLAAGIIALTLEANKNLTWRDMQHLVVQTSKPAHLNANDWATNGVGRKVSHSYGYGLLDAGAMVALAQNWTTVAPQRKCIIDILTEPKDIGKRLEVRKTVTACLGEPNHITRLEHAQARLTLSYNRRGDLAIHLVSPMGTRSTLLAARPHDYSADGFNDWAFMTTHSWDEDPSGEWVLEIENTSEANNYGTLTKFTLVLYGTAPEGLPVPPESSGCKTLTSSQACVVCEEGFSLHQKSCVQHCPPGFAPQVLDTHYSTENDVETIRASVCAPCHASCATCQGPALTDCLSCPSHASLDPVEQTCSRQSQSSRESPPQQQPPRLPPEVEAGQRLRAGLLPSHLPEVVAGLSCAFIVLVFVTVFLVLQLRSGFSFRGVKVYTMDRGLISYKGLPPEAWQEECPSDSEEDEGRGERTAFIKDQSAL
TEST NAME: furin cleavage Z-score vs untreated control; higher = more cleavage, active = 3.5 or more, inactive = 1 or less, 8 variable residues between constant flanks
STUDY CONDITIONS: 30 min
The other results are listed elsewhere or left out. The true hit rate is not given.
Give bare numbers.

Consider the reported furin cleavage Z-score for these sequences:
- INPUT SEQUENCE: "CAFQVAHLHAAGNASASA [HC772]"
  furin cleavage Z-score: -1.62
- INPUT SEQUENCE: "CATTPNSGSWAGNASASA [HC58]"
  furin cleavage Z-score: -1.83
- INPUT SEQUENCE: "CAQDAVSRTQAGNASASA [HC900]"
  furin cleavage Z-score: -1.41

# return furin cleavage Z-score for each item in the list
1. CAEMVVCCSMAGNASASA [HC2126]
2. CAPGEINRVAAGNASASA [HC1610]
3. CAPARRSVLAAGNASASA [FS-1987]

Reply:
1: 0.778; 2: 0.355; 3: -0.871

Query: Return the recorded furin cleavage Z-score value; entry: CADIMEECSQAGNASASA [HC1804]
Reply: 0.332
